Recorded growth for the following compounds
# Test system: SNB-19 CNS
# Test details: NCI-60 one-dose screen, 48 h (100 = growth as untreated, 0 = no growth, -100 = all killed)
# Condition details: 10 µM unless noted
Compounds without any hit were thinned out: in the full panel of roughly 83,000, 20% have a hit.
State the answer as a number, implicitly in %.

Examples from the recorded data:
INSERT INTO assay_data (compound, quantitative_readout) VALUES
  ('CC1CCc2c(sc3nc(SCC(=O)N/N=C/c4ccc(Cl)cc4)n(-c4ccccc4)c(=O)c23)C1 (stereo not given)', 81.6),
  ('C#C[C@]1(O)CC[C@H]2[C@@H]3CC=C4c5sc(-c6ccccn6)nc5CC[C@]4(C)[C@H]3CC[C@@]21C', 72.4),
  ('COc1ccccc1/C=C/C(=O)c1nnn(-c2ccc(C(=O)O)cc2)c1C', 87.9),
  ('O=S(=O)(Nc1ccc(I)c(Cl)c1)c1ccc(-c2cnc(C3CC3)o2)cc1', 42.7);

Give the measured growth for CN(c1ccc(Cl)cc1)S(=O)(=O)c1ccc(-c2cnc(C3CC3)o2)cc1
44.4
